UniProtKB P22455: reported pIC50 for various molecules.
pIC50: −log10 of the molar value.

{"MOLECULE": "C#CC(=O)NC1CCC1Nc1ncc2cc(-c3c(Cl)c(OC)cc(OC)c3Cl)ccc2n1 (stereo not drawn)", "pIC50": "7.00 to 8.00"}
{"MOLECULE": "C=CC(=O)N[C@H]1CCC[C@H]1Nc1ncc2cc(-c3c(Cl)c(OC)cc(OC)c3Cl)ccc2n1", "pIC50": "7.00 to 8.00"}
{"MOLECULE": "C=CC(=O)N[C@H]1COC[C@H]1Nc1ncc2cc(-c3c(Cl)c(OC)cc(OC)c3Cl)ccc2n1", "pIC50": "> 8.00"}
{"MOLECULE": "C=CC(=O)N[C@H]1CCOC[C@H]1Nc1ncc2cc(-c3c(Cl)c(OC)cc(OC)c3Cl)c(F)cc2n1", "pIC50": "> 8.00"}
{"MOLECULE": "C=CC(=O)NC1CN(C(=O)CN(C)C)CC1Nc1ncc2cc(-c3c(Cl)c(OC)cc(OC)c3Cl)ccc2n1 (stereo not drawn)", "pIC50": "> 8.00"}
{"MOLECULE": "C#CC(=O)N[C@H]1CCC[C@H]1Nc1ncc2cc(-c3c(Cl)ccc(OC)c3F)ccc2n1", "pIC50": "7.00 to 8.00"}
{"MOLECULE": "C#CC(=O)N[C@H]1CCC[C@H]1Nc1ncc2cc(-c3c(F)ccc(OCC)c3Cl)ccc2n1", "pIC50": "6.00 to 7.00"}
{"MOLECULE": "C=CC(=O)N[C@H]1CCC[C@H]1Nc1ncc2cc(-c3c(Cl)c(OC)cc(OC)c3Cl)cc(F)c2n1", "pIC50": "7.00 to 8.00"}
{"MOLECULE": "C=CC(=O)N[C@H]1CCOC[C@H]1Nc1ncc2cc(-c3c(Cl)c(OC)cc(OC)c3Cl)ccc2n1", "pIC50": "> 8.00"}
{"MOLECULE": "C#CC(=O)N[C@H]1CCCC[C@H]1Nc1cc2c(cn1)cc(-c1c(Cl)c(OC)cc(OC)c1Cl)c(=O)n2CC", "pIC50": "> 8.00"}

Asked: Supply reported pIC50 belonging to this molecule: `C=CC(=O)N[C@H]1COC[C@H]1Nc1ncc2cc(-c3c(Cl)c(OC)cc(OC)c3Cl)c(Cl)cc2n1`
Given back: > 8.00

Asked: Annotate the molecule `C=CC(=O)N[C@H]1CCOC[C@H]1Nc1ncc2cc(-c3c(Cl)c(OC)cc(OC)c3Cl)cnc2n1` with its measured pIC50.
Given back: 7.00 to 8.00

* * *

List of IC50 values.
- MEASURED ON: wild type FGFR-4 (Homo sapiens, UniProt P22455)
- Sequence (P22455 22-802): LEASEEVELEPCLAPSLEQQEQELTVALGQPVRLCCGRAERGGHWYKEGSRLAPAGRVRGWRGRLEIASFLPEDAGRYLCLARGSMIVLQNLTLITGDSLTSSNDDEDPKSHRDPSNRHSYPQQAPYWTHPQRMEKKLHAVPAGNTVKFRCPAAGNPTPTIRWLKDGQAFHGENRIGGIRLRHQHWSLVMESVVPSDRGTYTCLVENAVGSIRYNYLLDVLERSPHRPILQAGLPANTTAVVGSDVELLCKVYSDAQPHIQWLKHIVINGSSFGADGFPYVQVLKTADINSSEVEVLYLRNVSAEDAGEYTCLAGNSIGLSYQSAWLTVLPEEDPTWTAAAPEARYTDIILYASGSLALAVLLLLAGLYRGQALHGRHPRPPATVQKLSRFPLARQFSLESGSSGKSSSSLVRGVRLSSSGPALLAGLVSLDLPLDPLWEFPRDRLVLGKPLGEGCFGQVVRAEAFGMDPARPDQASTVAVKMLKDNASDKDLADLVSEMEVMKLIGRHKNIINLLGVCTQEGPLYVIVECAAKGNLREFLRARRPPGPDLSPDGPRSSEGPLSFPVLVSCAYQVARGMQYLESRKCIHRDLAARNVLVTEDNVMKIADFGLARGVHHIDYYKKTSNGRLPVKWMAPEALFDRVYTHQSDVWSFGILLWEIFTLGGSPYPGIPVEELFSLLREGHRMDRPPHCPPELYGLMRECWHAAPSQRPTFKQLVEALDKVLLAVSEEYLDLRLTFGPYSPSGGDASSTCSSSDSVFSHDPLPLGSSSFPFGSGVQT

Below, each entry is followed by its recorded IC50 result.
{"COMPOUND": "C=CS(=O)(=O)N[C@H]1CCCC[C@H]1Nc1ncc2cc(-c3c(Cl)c(OC)cc(OC)c3Cl)ccc2n1 [Compound 66]", "MEASUREMENT TYPE": "IC50", "VALUE MEASURED": "10 to 100 nM"}
{"COMPOUND": "C=CC(=O)N[C@H]1CN(C(=O)CO)C[C@H]1Nc1ncc2cc(-c3c(Cl)c(OC)cc(OC)c3Cl)ccc2n1 [Compound 76]", "MEASUREMENT TYPE": "IC50", "VALUE MEASURED": "< 10 nM"}

Now turn to the next compound.
Asked: Specify IC50 for C=CC(=O)N[C@H]1CCCC[C@H]1Nc1ncc2cc(-c3c(Cl)c(OC)cc(OC)c3Cl)ccc2n1 [Compound 34] , system wild type FGFR-4 (Homo sapiens, UniProt P22455).
Given back: 10 to 100 nM
